Listing of entries alongside the reported viability, T/C.
system: 996289-038-R-J1-PDC complex spheroid viability; assay: Anticancer human tumor 996289-038-R-J1-PDC patient-derived colon adenocarcinoma cell line growth inhibition [CLK]; conditions: second compound 10 µM; first compound 0.003 µM; hits give low values;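 also: spheroids exposed to the agents for 7 days before readout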
// units = %; emit number, no label

Some compounds with known viability, T/C results, for comparison:
CC(C)CC(NC(=O)C(Cc1ccccc1)NC(=O)c1cnccn1)B(O)O (centres undefined) + CN1CCN(c2cc(C(=O)Nc3cc4cc(-c5cnn(C)c5)ccc4cn3)ccn2)CC1
1.36
C=CC(=O)Nc1cc(Nc2nccc(-c3cn(C)c4ccccc34)n2)c(OC)cc1N(C)CCN(C)C + CN1CCN(c2cc(C(=O)Nc3cc4cc(-c5cnn(C)c5)ccc4cn3)ccn2)CC1
0.58
CC(C)CC(NC(=O)C(Cc1ccccc1)NC(=O)c1cnccn1)B(O)O (centres undefined) + CNC(=O)c1ccc(Nc2nc(OC3CCCC3)c3c(-c4ccc5nc(C)oc5c4)c[nH]c3n2)c(OC)c1
6.54

Could you tell me which viability, T/C is on file for C=CC(=O)Nc1cc(Nc2nccc(-c3cn(C)c4ccccc34)n2)c(OC)cc1N(C)CCN(C)C + CNC(=O)c1ccc(Nc2nc(OC3CCCC3)c3c(-c4ccc5nc(C)oc5c4)c[nH]c3n2)c(OC)c1 ?
55.9
